# measurementNotes: Tissue concentration of antibiotic after implantation
# Format: in vivo
# statedConditions: other: implantation, after about 6 hours, range worded for embodiments, see Table 7, read-out: tissue concentration
measureName: concentration at 6 h

>>> valuereported("CO[C@H]1/C=C/O[C@@]2(C)Oc3c(C)c(O)c4c(O)c(c(/C=N/N5CCN(C)CC5)c(O)c4c3C2=O)NC(=O)/C(C)=C\\C=C\\[C@H](C)[C@H](O)[C@@H](C)[C@@H](O)[C@@H](C)[C@H](OC(C)=O)[C@@H]1C [Rifampin]")
"1900 to 2300 ng/mL"

Please look up its concentration at 6 h: CN(C)c1ccc(O)c2c1C[C@H]1C[C@H]3[C@H](N(C)C)C(O)=C(C(N)=O)C(=O)[C@@]3(O)C(O)=C1C2=O [Minocycline] 2550 to 2750 ng/mL

Cited source: patent US9585988B2
